Cited source for all entries: paper PMC10539501

# assay-comment: physchem
# experimental-conditions: pH 7.4
Starred links: 1 amine or outer side, 2 acyl side, 3 side chain; linkers in the order of their positions; H or OH if unused. Non-standard residues stand in square brackets, D forms with d. Residues, ends and D or L forms follow the SMILES beside them. X10 = NCCCC[C@H](NC(=S)[C@@H](Cc1c[nH]c2ccccc12)N[*:1])C(=O)[*:2]; X1 = CC(C)C[C@H](NC(=S)[C@H](Cc1ccc(O)cc1)N[*:1])C(=O)[*:2]; X11 = CC[C@H](C)[C@H](N[*:1])C(=S)N[C@@H](C)C(=O)[*:2]; X14 = C[C@H](N[*:1])C(=S)N[C@@H](Cc1ccccc1)C(=O)[*:2]; X3 = CC(C)C[C@H](N[*:1])C(=S)N[C@H](CC(C)C)C(=O)[*:2]; X19 = CC(C)C[C@H](NC(=S)[C@@H]1CCCN1[*:1])C(=O)[*:2]; X18 = C[C@@H](N[*:1])C(=S)N1CCC[C@H]1C(=O)[*:2]; NMeL = CN[C@@H](CC(C)C)C(=O)O
Listed here: items and their measured logD.
recorded-metric: logD

{"columns": ["compound", "result"],
 "data": [
  ["C[C@@H](C(=O)O)N(C)C(=O)[C@@H](N)Cc1ccccc1", -1.76],
  ["CC[C@H](C)[C@@H]1NC(=O)[C@@H]2CCCN2C(=O)[C@H](Cc2ccccc2)NC(=O)[C@H](C)NC(=O)[C@H](C)NC(=S)[C@H]([C@@H](C)CC)NC(=O)[C@@H]2CCCN2C1=O [11a] (cyclo(AFPIP[X11]))", 0.55],
  ["CC(C)C[C@@H]1NC(=O)[C@@H](CC(C)C)NC(=O)[C@H]2CCCN2C(=O)[C@H](CC(C)C)NC(=O)[C@@H](CC(C)C)NC(=O)[C@H](CC(C)C)NC(=O)[C@@H]2CCCN2C(=S)[C@@H](C)NC1=O [12f] (cyclo(L[dL]L[dP][dL]L[X18]))", 1.58],
  ["CC[C@H](C)[C@@H]1NC(=O)[C@@H]2CCCN2C(=O)[C@H]([C@@H](C)CC)NC(=O)[C@@H]2CCCN2C(=O)[C@H](Cc2ccccc2)NC(=S)[C@H](C)NC(=O)[C@H](C)NC1=O [11c] (cyclo(A[X14]PIPI))", 0.43],
  ["CC(C)C[C@@H]1NC(=O)[C@@H](CC(C)C)NC(=O)[C@H]2CCCN2C(=O)[C@H](CC(C)C)NC(=O)[C@@H](CC(C)C)NC(=O)[C@H](CC(C)C)NC(=S)[C@@H]2CCCN2C(=O)[C@@H](C)NC1=O [12g] (cyclo(L[dA][X19][dL]L[dP][dL]))", 1.59],
  ["C[C@@H](O)[C@@H]1NC(=O)[C@H](CCCCN)NC(=O)[C@@H](Cc2c[nH]c3ccccc23)NC(=S)[C@H](Cc2ccccc2)NC(=O)[C@@H]2CCCN2C(=O)[C@H](Cc2ccccc2)NC1=O [13f]", -0.93],
  ["CC(C)C[C@@H]1NC(=O)[C@@H](CC(C)C)NC(=O)[C@H](CC(C)C)N(C)C(=O)[C@H](Cc2ccc(O)cc2)NC(=O)[C@H]2CCCN2C(=O)[C@H](CC(C)C)NC1=O [10k] (cyclo(LL[dP]Y[NMeL][dL]))", 1.2],
  ["N[C@@H](Cc1ccccc1)C(=O)N[C@@H](CCC(=O)O)C(=O)O [compound 2] (H-Phe-Glu-OH)", -2.56],
  ["N[C@@H](Cc1ccccc1)C(=O)N[C@@H](Cc1c[nH]c2ccccc12)C(=O)O [compound 7] (H-Phe-Trp-OH)", -0.65],
  ["CC(C)C[C@@H]1NC(=O)[C@@H](CC(C)C)NC(=S)[C@H](CC(C)C)NC(=O)[C@H](Cc2ccc(O)cc2)NC(=O)[C@H]2CCCN2C(=O)[C@H](CC(C)C)NC1=O [10f] (cyclo(LL[dP]Y[X3]))", 1.53],
  ["CSCC[C@H](NC(=S)[C@@H](N)Cc1ccccc1)C(=O)O", -0.79],
  ["CC(C)C[C@@H]1NC(=O)[C@@H](CC(C)C)NC(=O)[C@H](CC(C)C)NC(=S)[C@H](Cc2ccc(O)cc2)NC(=O)[C@H]2CCCN2C(=O)[C@H](CC(C)C)NC1=O [10e] (cyclo(LL[dP][X1][dL]))", 1.45],
  ["C[C@@H](O)[C@@H]1NC(=O)[C@H](CCCCN)NC(=S)[C@@H](Cc2c[nH]c3ccccc23)NC(=O)[C@H](Cc2ccccc2)NC(=O)[C@@H]2CCCN2C(=O)[C@H](Cc2ccccc2)NC1=O [13a] (cyclo(FPF[X10]T))", -0.65],
  ["CSCC[C@@H](C(=O)O)N(C)C(=O)[C@@H](N)Cc1ccccc1", -1.05]
]}
